Target: human insulin receptor (HIR) (Homo sapiens)
Construct: made in house
Sequence (P06213 28-758 limits assumed): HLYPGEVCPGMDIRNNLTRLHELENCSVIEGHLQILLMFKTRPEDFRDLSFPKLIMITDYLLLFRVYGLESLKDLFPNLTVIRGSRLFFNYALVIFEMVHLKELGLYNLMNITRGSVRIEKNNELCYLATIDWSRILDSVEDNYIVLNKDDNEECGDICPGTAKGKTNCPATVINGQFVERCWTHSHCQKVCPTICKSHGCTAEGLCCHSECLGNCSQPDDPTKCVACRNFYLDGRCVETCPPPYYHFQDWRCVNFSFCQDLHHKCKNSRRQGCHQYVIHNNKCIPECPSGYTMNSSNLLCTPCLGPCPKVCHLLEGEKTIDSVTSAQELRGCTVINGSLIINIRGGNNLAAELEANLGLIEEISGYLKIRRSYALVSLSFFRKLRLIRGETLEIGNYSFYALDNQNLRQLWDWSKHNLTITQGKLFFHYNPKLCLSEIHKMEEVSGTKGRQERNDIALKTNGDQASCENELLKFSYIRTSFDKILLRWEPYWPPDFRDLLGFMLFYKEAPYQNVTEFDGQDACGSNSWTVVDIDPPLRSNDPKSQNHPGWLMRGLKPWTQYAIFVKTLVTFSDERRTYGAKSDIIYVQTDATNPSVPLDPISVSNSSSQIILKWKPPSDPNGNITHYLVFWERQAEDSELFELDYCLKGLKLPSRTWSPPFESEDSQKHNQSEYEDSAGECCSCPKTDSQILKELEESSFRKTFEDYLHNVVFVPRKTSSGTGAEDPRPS
Sequence (P06213 763-1382 limits assumed): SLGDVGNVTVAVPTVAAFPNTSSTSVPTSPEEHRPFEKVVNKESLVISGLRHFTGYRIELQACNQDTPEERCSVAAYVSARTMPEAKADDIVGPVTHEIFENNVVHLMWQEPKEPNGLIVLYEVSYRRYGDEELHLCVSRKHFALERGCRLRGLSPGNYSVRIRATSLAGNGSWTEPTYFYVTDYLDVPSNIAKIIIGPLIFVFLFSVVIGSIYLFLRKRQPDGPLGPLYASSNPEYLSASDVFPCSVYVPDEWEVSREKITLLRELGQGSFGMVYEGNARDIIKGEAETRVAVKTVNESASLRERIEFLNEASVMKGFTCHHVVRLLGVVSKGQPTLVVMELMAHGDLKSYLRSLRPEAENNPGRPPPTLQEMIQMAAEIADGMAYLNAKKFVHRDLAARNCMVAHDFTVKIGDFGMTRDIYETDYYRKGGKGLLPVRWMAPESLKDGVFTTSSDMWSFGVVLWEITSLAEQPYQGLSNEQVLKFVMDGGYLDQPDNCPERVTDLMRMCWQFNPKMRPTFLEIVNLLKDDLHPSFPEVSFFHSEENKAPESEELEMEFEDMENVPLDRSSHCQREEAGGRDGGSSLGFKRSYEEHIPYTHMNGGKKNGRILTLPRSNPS
Assay: 125I-insulin competition binding assay on solubilised purified receptor
Details: read-out: HIR affinity
pKd: −log10 of the molar value. No end group written: not given here.
assay_readout: pKd

Use the examples below as a reference point.
substance | pKd
EHWNTVDPFYFTLFEWLRESG-NH2 [Clone S177] | 5.57
FHENFYDWFVRQASKK-NH2 [Clone S106] | 6.38
FHENFYDWFVAQVSKK-NH2 [Clone S108] | 6.12
NGVERAGTGDNFYDWFVAQLH-NH2 [Clone S176] | 6.33
LDRQFYRYFQDLLVGFM-NH2 [Clone S260] | 5.64
QSFYDYIEELLGGEWKK-NH2 [Clone S288] | 5.37
AAAAFYDWFAAAAAKK-NH2 [Clone S168] | 5.42
FAENFYDWFVRQVSKK-NH2 [Clone S112] | 6.21
FHENFYDWFVRAVSKK-NH2 [Clone S107] | 6.00
AHENFYDWFVRQVSKK-NH2 [Clone S113] | 6.23

I. FHENFYDWFVRQVAKK-NH2 [Clone S105]
II. QSDSGTVHDRFYGWFRDTWAS-NH2 [Clone S179]
Which has the smaller recorded pKd, I or II ? Give the label of your selection.
II

* * *

Test system: adipocytes
Assay: 3H-glucose uptake into adipocytes (fat cell assay, FFC)
Assay type: cell-based, Mouse
Parameters: key: 0 is no effect; + is agonist; - is antagonist

compound | FFC
CC(C)[C@H](NC(=O)[C@H](Cc1ccccc1)NC(=O)[C@H](Cc1c[nH]c2ccccc12)NC(=O)CNC(=O)[C@H](Cc1ccc(O)cc1)NC(=O)[C@H](Cc1ccccc1)NC(=O)[C@H](CC(N)=O)NC(=O)[C@H](CCC(=O)O)NC(=O)[C@@H](N)Cc1c[nH]cn1)C(=O)N[C@@H](CCCNC(=N)N)C(=O)N[C@@H](CCC(N)=O)C(=O)N[C@H](C(=O)N[C@@H](CO)C(=O)N[C@@H](CCCCN)C(=O)N[C@@H](CCCCN)C(=O)O)C(C)C [Clone S137] | 0
CC[C@H](C)[C@H](NC(=O)[C@H](C)NC(=O)[C@H](CC(N)=O)NC(=O)[C@H](Cc1ccc(O)cc1)NC(=O)[C@H](Cc1ccccc1)NC(=O)CNC(=O)[C@H](CC(=O)O)NC(=O)[C@@H](N)CO)C(=O)N[C@@H](CCC(=O)O)C(=O)N[C@@H](CC(C)C)C(=O)N[C@@H](CC(C)C)C(=O)N[C@@H](CO)C(=O)O [Clone S118] | +
CC(C)[C@H](NC(=O)[C@H](Cc1ccccc1)NC(=O)[C@H](Cc1c[nH]c2ccccc12)NC(=O)[C@H](CC(=O)O)NC(=O)[C@H](Cc1ccc(O)cc1)NC(=O)[C@H](Cc1ccccc1)NC(=O)[C@H](CC(N)=O)NC(=O)[C@H](CCC(=O)O)NC(=O)[C@H](Cc1c[nH]cn1)NC(=O)[C@@H](N)Cc1ccccc1)C(=O)N[C@@H](CCCNC(=N)N)C(=O)N[C@@H](CCC(N)=O)C(=O)N[C@H](C(=O)N[C@@H](CO)C(=O)N[C@@H](CCCCN)C(=O)N[C@@H](CCCCN)C(=O)N[C@@H](CNC(=O)CON)C(N)=O)C(C)C [Clone S131] | +
